The measured values listed here are drawn from PubChem BioAssay AID256.

# System: CD2F1 mice, L1210 leukemia ip, survival T/C
# assay_name: NCI In Vivo Anticancer Drug Screen. Data for tumor model L1210 Leukemia (intraperitoneal) in CD2F1 (CDF1) mice
# cond: endpoint: mean survival time; dose: 50.0 mg/kg/injection; schedule: Q01DX009 (ip); vehicle: saline with Tween-80; higher = longer survival
Inconclusive results and toxic doses are left out.
readout_name: T/C

Previously resolved entries follow.
- compound: "O=C=Nc1ccc(N=Nc2ccccc2)cc1"
  target_or_system: "CD2F1 mice, L1210 leukemia ip, survival T/C"
  reported_value: "88 % of control"
- compound: "C=C(Br)CNC(=O)C(C)(C)C"
  target_or_system: "CD2F1 mice, L1210 leukemia ip, survival T/C"
  reported_value: "100 % of control"
- compound: "CC1=CC(=O)C2(C)C(C)=C(C)C12C (stereo not drawn)"
  target_or_system: "CD2F1 mice, L1210 leukemia ip, survival T/C"
  reported_value: "100 % of control"
- compound: "[Cl][Pt+2]([Cl])([Cl])[Cl].[NH-]C1CCCCC1.[NH-]C1CCCCC1"
  target_or_system: "CD2F1 mice, L1210 leukemia ip, survival T/C"
  reported_value: "100 % of control"
- compound: "O=C1CCCC2C3CC(CN12)C1CCCCN1C3 (stereo not drawn)"
  target_or_system: "CD2F1 mice, L1210 leukemia ip, survival T/C"
  reported_value: "101 % of control"
- compound: "NNC(=O)NO"
  target_or_system: "CD2F1 mice, L1210 leukemia ip, survival T/C"
  reported_value: "103 % of control"
- compound: "[N-]=[N+]=Nc1cc(NC(=O)c2ccccc2)ccc1NC(=O)c1ccccc1"
  target_or_system: "CD2F1 mice, L1210 leukemia ip, survival T/C"
  reported_value: "101 % of control"
- compound: "Cc1ccc(NC(=O)OCCOc2ccccc2Cl)cc1C"
  target_or_system: "CD2F1 mice, L1210 leukemia ip, survival T/C"
  reported_value: "96 % of control"
- compound: "CCc1cc(CC)c(CC)c(Br)c1CC"
  target_or_system: "CD2F1 mice, L1210 leukemia ip, survival T/C"
  reported_value: "98 % of control"
- compound: "CCOC(=O)CN1C(=O)c2ccccc2C1=O"
  target_or_system: "CD2F1 mice, L1210 leukemia ip, survival T/C"
  reported_value: "88 % of control"

Reported T/C for `Cc1ccc2nc(-c3ccc(NC(=O)Nc4cccc(F)c4)cc3)sc2c1` was 97 % of control

Per the records, this compound ( `ClC1=C(Cl)C(Cl)=C(Cl)C1=Cc1ccccc1` ) has T/C equal to 105 % of control

Data point: `CC(=O)CC(O)(C(F)(F)F)C(F)(F)F` ; T/C = 101 % of control
